# assay_system: HIV-1 Env of isolate MGRM-D-018 (subtype D) (HIV-1)
# method_description: cell-based or functional assay
# IC50 (neutralization) per entry
Your answer should be a plain number; it is taken to be in µg/mL.

Enquiry: Given the binder PGT-130 (antibody, V domains shown) VH: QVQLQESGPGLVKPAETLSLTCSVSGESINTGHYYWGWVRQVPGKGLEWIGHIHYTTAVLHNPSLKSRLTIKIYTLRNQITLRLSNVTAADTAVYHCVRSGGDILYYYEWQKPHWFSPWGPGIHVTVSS VL: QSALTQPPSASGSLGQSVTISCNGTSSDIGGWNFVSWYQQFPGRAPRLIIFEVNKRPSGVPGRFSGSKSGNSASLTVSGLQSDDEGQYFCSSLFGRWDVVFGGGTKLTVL , what is its reported IC50 (neutralization)?
Return: 0.049

Continuing:
Enquiry: Would you mind telling me what IC50 (neutralization) value was observed for PGT-127 (antibody, V domains shown) VH: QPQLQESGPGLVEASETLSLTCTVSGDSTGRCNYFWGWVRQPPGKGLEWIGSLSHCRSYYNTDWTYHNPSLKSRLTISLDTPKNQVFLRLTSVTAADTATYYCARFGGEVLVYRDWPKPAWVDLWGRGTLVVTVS VL: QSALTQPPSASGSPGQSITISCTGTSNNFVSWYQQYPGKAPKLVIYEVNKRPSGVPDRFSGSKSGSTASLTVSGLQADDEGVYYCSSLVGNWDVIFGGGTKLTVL ?
Return: 0.021

Enquiry: Any idea what IC50 (neutralization) was measured for PGT-123 (antibody, V domains shown) VH: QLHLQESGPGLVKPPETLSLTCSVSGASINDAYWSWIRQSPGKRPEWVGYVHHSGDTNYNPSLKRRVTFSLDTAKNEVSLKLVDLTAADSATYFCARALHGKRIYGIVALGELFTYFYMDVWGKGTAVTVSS VL: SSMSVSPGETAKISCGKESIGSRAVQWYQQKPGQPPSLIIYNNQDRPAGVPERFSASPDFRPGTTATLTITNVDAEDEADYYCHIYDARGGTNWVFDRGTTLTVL ?
Return: 0.007

Enquiry: GET /values?readout=IC50 (neutralization)&item= PGT-137 (antibody, V domains shown) VH: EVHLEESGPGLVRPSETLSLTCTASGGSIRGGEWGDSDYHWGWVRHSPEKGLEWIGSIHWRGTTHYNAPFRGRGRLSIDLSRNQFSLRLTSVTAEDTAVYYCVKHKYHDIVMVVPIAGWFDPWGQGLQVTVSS VL: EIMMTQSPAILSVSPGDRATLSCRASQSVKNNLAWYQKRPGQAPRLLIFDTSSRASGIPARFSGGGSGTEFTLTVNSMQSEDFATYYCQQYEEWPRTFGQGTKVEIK
Return: 15.1

Enquiry: Using the record for PGT-135 (antibody, V domains shown) VH: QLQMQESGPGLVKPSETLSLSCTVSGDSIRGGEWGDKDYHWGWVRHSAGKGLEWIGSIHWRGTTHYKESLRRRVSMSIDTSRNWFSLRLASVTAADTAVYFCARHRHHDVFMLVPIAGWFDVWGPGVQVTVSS VL: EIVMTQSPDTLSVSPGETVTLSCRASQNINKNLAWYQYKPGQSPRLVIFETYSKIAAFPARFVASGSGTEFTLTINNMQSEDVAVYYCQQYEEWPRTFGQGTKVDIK , report its IC50 (neutralization).
Return: 0.039

Enquiry: Return reported IC50 (neutralization); argument: PGT-128 (antibody, V domains shown) VH: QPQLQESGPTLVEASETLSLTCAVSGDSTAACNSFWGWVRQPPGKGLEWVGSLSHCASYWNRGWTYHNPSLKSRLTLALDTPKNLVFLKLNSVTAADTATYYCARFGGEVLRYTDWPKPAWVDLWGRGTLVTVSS VL: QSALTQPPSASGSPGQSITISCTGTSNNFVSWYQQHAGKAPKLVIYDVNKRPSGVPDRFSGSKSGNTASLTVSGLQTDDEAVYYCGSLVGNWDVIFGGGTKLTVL
Return: 0.008

Enquiry: Form field: reported IC50 (neutralization) of PGT-125 (antibody, V domains shown) VH: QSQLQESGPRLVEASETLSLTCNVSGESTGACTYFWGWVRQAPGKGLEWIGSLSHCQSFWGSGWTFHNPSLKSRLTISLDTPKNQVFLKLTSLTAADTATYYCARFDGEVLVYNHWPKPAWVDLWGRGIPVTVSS VL: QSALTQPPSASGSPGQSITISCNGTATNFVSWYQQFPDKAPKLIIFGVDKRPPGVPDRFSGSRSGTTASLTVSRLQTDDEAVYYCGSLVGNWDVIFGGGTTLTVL
Return: 0.049

Enquiry: Fill in: IC50 (neutralization) of PGT-126 (antibody, V domains shown) VH: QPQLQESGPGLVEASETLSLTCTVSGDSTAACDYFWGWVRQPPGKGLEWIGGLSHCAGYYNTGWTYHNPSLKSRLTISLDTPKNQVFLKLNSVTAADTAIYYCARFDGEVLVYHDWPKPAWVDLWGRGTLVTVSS VL: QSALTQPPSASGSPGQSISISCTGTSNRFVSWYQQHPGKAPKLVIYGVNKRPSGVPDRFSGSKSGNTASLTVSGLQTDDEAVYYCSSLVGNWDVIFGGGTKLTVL is ___
Return: 0.009

Enquiry: Using the record for PGT-131 (antibody, V domains shown) VH: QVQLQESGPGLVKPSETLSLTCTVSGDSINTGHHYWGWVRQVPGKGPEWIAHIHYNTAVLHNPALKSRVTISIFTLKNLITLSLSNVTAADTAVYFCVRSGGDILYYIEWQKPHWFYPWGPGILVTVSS VL: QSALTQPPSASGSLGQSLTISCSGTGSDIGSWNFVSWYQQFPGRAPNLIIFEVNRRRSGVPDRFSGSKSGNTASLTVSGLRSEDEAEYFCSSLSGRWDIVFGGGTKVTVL , report its IC50 (neutralization).
Return: 0.148

This collection of values is drawn from patent US20160264649A1.
